// reported CC50 per item
Tested on: Vero cells
Assay: Toxicity on the same plates (ATPlite cell viability)
Details: Vero cells, same plates as DENV-2 antiviral assay
Answer in µM, number only, no unit symbol.

Below: 4 molecules and their reported CC50.
MOLECULE	CC50 / µM
COc1cc(NC(C(=O)c2c[nH]c3c(C)cc(C(F)(F)F)cc23)c2ccc(F)cc2OC)cc(OCCO)c1 (single isomer, unassigned) [Compound 4A]	11
COc1cc(NC(C(=O)c2c[nH]c3c(C)cc(C(F)(F)F)cc23)c2ccc(Cl)cc2OC)cc(OCCO)c1 (single isomer, unassigned) [Compound 12B]	11
COc1cc(NC(C(=O)c2c[nH]c3cc(OC)c(OC(F)(F)F)cc23)c2ccc(Cl)cc2OC)cc(OCCO)c1 (single isomer, unassigned) [Compound 14A]	2.5
COc1cc(NC(C(=O)c2c[nH]c3cc(F)c(C(F)(F)F)cc23)c2ccc(F)cc2OC)cc(OCCO)c1 (single isomer, unassigned) [Compound 3B]	7.8

Now take the following molecule into account.
Q) Quick one: CC50 of COc1cc(NC(C(=O)c2c[nH]c3cc(F)c(OC(F)(F)F)cc23)c2ccc(F)cc2OC)cc(OCCO)c1 (single isomer, unassigned) [Compound 7B] ?
A) 2.4

====

Assay: Cytotoxicity in RT-qPCR assay (Cp of housekeeping gene β-actin)
Assay type: cell-based
Settings: African green monkey, RT-qPCR serotype 2 16681, Protocol A
Experimental: The antiviral activity of the compounds of the invention was tested against DENV-1 strain TC974 #666 (NCPV), DENV-2 strain 16681, DENV-3 strain H87 (NCPV) and DENV-4 strain H241 (NCPV) in a RT-qPCR assay. Therefore, Vero cells were infected with either DENV-1, or -2, or -3, or -4 in the presence or absence of test compounds. […] In addition, CC50 values are determined based on the Cp values acquired for the housekeeping gene β-actin. […]
READOUT KIND: CC50 at 3 days (µM)
Answer in µM, number only, no unit symbol.

MOLECULE	UNIT ABBREV	CC50 at 3 days
COc1cc(NC(C(=O)c2c[nH]c3cc(OC)c(C(F)(F)F)cc23)c2ccc(F)cc2OC)cc(OCCO)c1 (single isomer, unassigned) [Compound 2A]	µM	3.2
COc1cc(NC(C(=O)c2c[nH]c3cc(OC)c(OC(F)(F)F)cc23)c2ccc(F)cc2OC)cc(OCCO)c1 (single isomer, unassigned) [Compound 6A]	µM	3.9

Q) Quick one: CC50 at 3 days of COc1cc(NC(C(=O)c2c[nH]c3ccc(OC(F)(F)F)cc23)c2ccc(F)cc2OC)cc(OCCO)c1 (single isomer, unassigned) [Compound 5B] ?
A) 3.2

====

Tested on: Vero cells
Experiment: Toxicity on the same plates (ATPlite cell viability)
Conditions: Vero cells, same plates as DENV-2 antiviral assay
// reported CC50 per item
Answer in µM, number only, no unit symbol.

Below: 8 compounds and their reported CC50.
COMPOUND	CC50 (µM)
COc1cc(NC(C(=O)c2c[nH]c3cc(F)c(OC(F)(F)F)cc23)c2ccc(F)cc2OC)cc(OCCO)c1 (single isomer, unassigned) [Compound 7A]	6.7
COc1cc(NC(C(=O)c2c[nH]c3cc(OC)c(C(F)(F)F)cc23)c2ccc(F)cc2OC)cc(OCCO)c1 (single isomer, unassigned)	6.8
COc1cc(NC(C(=O)c2c[nH]c3ccc(C(F)(F)F)cc23)c2ccc(F)cc2OC)cc(OCCO)c1 (single isomer, unassigned)	6.8
COc1cc(NC(C(=O)c2c[nH]c3cc(F)c(C(F)(F)F)cc23)c2ccc(Cl)cc2OC)cc(OCCO)c1 (single isomer, unassigned) [Compound 11B]	2.7
COc1cc(NC(C(=O)c2c[nH]c3ccc(OC(F)(F)F)cc23)c2ccc(Cl)cc2OC)cc(OCCO)c1 (single isomer, unassigned) [Compound 13B]	5.8
COc1cc(NC(C(=O)c2c[nH]c3cc(OC)c(OC(F)(F)F)cc23)c2ccc(F)cc2OC)cc(OCCO)c1 (single isomer, unassigned) [Compound 6B]	10
COc1cc(NC(C(=O)c2c[nH]c3cc(OC)c(OC(F)(F)F)cc23)c2ccc(Cl)cc2OC)cc(OCCO)c1 (single isomer, unassigned) [Compound 14B]	5.4
COc1cc(NC(C(=O)c2c[nH]c3c(C)cc(C(F)(F)F)cc23)c2ccc(F)cc2OC)cc(OCCO)c1 (single isomer, unassigned) [Compound 4B]	2.5

Q) Quick one: CC50 of COc1cc(NC(C(=O)c2c[nH]c3ccc(C(F)(F)F)cc23)c2ccc(Cl)cc2OC)cc(OCCO)c1 (single isomer, unassigned) ?
A) 3.3

Q) // same read-out, input: COc1cc(NC(C(=O)c2c[nH]c3c(C)cc(OC(F)(F)F)cc23)c2ccc(Cl)cc2OC)cc(OCCO)c1 (single isomer, unassigned) [Compound 16B]
A) 3.6

Q) // same read-out, input: COc1cc(NC(C(=O)c2c[nH]c3c(C)cc(OC(F)(F)F)cc23)c2ccc(F)cc2OC)cc(OCCO)c1 (single isomer, unassigned) [Compound 8B]
A) 6

Q) // same read-out, input: COc1cc(NC(C(=O)c2c[nH]c3cc(F)c(OC(F)(F)F)cc23)c2ccc(Cl)cc2OC)cc(OCCO)c1 (single isomer, unassigned) [Compound 15B]
A) 2.6

Q) // same read-out, input: COc1cc(NC(C(=O)c2c[nH]c3cc(F)c(C(F)(F)F)cc23)c2ccc(F)cc2OC)cc(OCCO)c1 (single isomer, unassigned) [Compound 3A]
A) 2.4

Q) // same read-out, input: COc1cc(NC(C(=O)c2c[nH]c3ccc(OC(F)(F)F)cc23)c2ccc(F)cc2OC)cc(OCCO)c1 (single isomer, unassigned)
A) 3.3

Q) // same read-out, input: COc1cc(NC(C(=O)c2c[nH]c3c(C)cc(OC(F)(F)F)cc23)c2ccc(F)cc2OC)cc(OCCO)c1 (single isomer, unassigned) [Compound 8A]
A) 2.9

Q) // same read-out, input: COc1cc(NC(C(=O)c2c[nH]c3c(C)cc(C(F)(F)F)cc23)c2ccc(Cl)cc2OC)cc(OCCO)c1 (single isomer, unassigned) [Compound 12A]
A) 2.6

====

Experiment: Cytotoxicity in RT-qPCR assay (Cp of housekeeping gene β-actin)
Assay type: cell-based
Conditions: African green monkey, RT-qPCR serotype 1 TC974#666, Protocol A
READOUT KIND: CC50 at 3 days

Below: 2 compounds and their reported CC50 at 3 days.
COMPOUND	CC50 at 3 days
COc1cc(NC(C(=O)c2c[nH]c3cc(F)c(C(F)(F)F)cc23)c2ccc(Cl)cc2OC)cc(OCCO)c1 (single isomer, unassigned) [Compound 11A]	> 2.5 µM
COc1cc(NC(C(=O)c2c[nH]c3cc(OC)c(OC(F)(F)F)cc23)c2ccc(F)cc2OC)cc(OCCO)c1 (single isomer, unassigned) [Compound 6A]	> 2.1 µM

Now take the following compound into account.
Q) Quick one: CC50 at 3 days of COc1cc(NC(C(=O)c2c[nH]c3cc(F)c(OC(F)(F)F)cc23)c2ccc(Cl)cc2OC)cc(OCCO)c1 (single isomer, unassigned) [Compound 15B] ?
A) 1.5 µM

====

Assay: Toxicity on the same plates (ATPlite cell viability)
Details: African green monkey, CC50, Vero cells, same plates as DENV-2 antiviral assay
READOUT KIND: CC50

Below: 5 compounds and their reported CC50.
COMPOUND	CC50
COc1cc(NC(C(=O)c2c[nH]c3c(C)cc(OC(F)(F)F)cc23)c2ccc(Cl)cc2OC)cc(OCCO)c1 (racemic) [Compound 16]	2.5 µM
COc1cc(NC(C(=O)c2c[nH]c3ccc(C(F)(F)F)cc23)c2ccc(Cl)cc2OC)cc(OCCO)c1 (single isomer, unassigned) [Compound 9A]	3.5 µM
COc1cc(NC(C(=O)c2c[nH]c3ccc(C(F)(F)F)cc23)c2ccc(Cl)cc2OC)cc(OCCO)c1 (racemic) [Compound 9]	2.5 µM
COc1cc(NC(C(=O)c2c[nH]c3cc(OC)c(OC(F)(F)F)cc23)c2ccc(Cl)cc2OC)cc(OCCO)c1 (racemic) [Compound 14]	3.5 µM
COc1cc(NC(C(=O)c2c[nH]c3c(C)cc(OC(F)(F)F)cc23)c2ccc(F)cc2OC)cc(OCCO)c1 (racemic) [Compound 8]	4.7 µM

Q) Quick one: CC50 of COc1cc(NC(C(=O)c2c[nH]c3cc(OC)c(C(F)(F)F)cc23)c2ccc(Cl)cc2OC)cc(OCCO)c1 (racemic) [Compound 10] ?
A) 3.2 µM

Q) // same read-out, input: COc1cc(NC(C(=O)c2c[nH]c3cc(OC)c(C(F)(F)F)cc23)c2ccc(F)cc2OC)cc(OCCO)c1 (racemic) [Compound 2]
A) 4.8 µM

Q) // same read-out, input: COc1cc(NC(C(=O)c2c[nH]c3cc(F)c(C(F)(F)F)cc23)c2ccc(Cl)cc2OC)cc(OCCO)c1 (single isomer, unassigned) [Compound 11A]
A) 2.5 µM
